All values here come from patent US20220339143A1.

Test: Single dose PK in healthy subjects (Cohorts 1, 2, S1 and S2), plasma
Assay type: in vivo, human
Settings: human, plasma, iv, 240 mg, 240 mg single IV infusion; 4 hr; read-out: Plasma Concentration of Cmpd A, Maximum
readout-kind: concentration at 4 h (ng/mL)
Answers are plain numbers, in ng/mL.

I would be grateful if you could share the reported concentration at 4 h for COC(=O)N1CCC[C@H](NS(C)(=O)=O)[C@@H]1CO[C@H]1CC[C@@H](c2ccccc2)CC1 [Compound A] .
650

* * *

Test: Single dose PK in healthy subjects (Cohorts 1, 2, S1 and S2), plasma
Format: in vivo, human
Details: human, plasma, iv, 134.4 mg, 134.4 mg single IV infusion, healthy subjects; read-out: AUCinf Mean
readout-kind: AUC(0-inf) (ng·h/mL)
Numbers only, in ng·h/mL.

I would be grateful if you could share the reported AUC(0-inf) for COC(=O)N1CCC[C@H](NS(C)(=O)=O)[C@@H]1CO[C@H]1CC[C@@H](c2ccccc2)CC1 .
2720
